The values you see were collected from the supplement of paper PMC10627819.

# System: B. subtilis 168;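 note: OD595 on entry to stationary phase over no-drug wells; at most 1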
# Experiment notes: fitness (endpoint OD595 vs no drug) (fraction); higher = more growth
# Cond: first compound 2.5 µg/mL; partner 0.25 µg/mL

Compound: Cc1ncc([N+](=O)[O-])n1CCO [Metronidazole] + CC1=C\[C@@H](O)CC(=O)Cc2nc(co2)C(=O)N2CCC=C2C(=O)O[C@H](C(C)C)[C@H](C)/C=C/C(=O)NC\C=C\1 [Virginiamycin M1]
fitness: 0.96
//
Compound: COc1cccc2c1C(=O)c1c(O)c3c(c(O)c1C2=O)C[C@@](O)(C(=O)CO)C[C@@H]3O[C@H]1C[C@H](N)[C@H](O)[C@H](C)O1 [Doxorubicin] + CC1=C(C(=O)O)N2C(=O)[C@@H](NC(=O)[C@H](N)c3ccccc3)[C@H]2SC1 [Cephalexin]
fitness: 0.68
//
Compound: COc1cccc2c1C(=O)c1c(O)c3c(c(O)c1C2=O)C[C@@](O)(C(=O)CO)C[C@@H]3O[C@H]1C[C@H](N)[C@H](O)[C@H](C)O1 [Doxorubicin] + CC1=C\[C@@H](O)CC(=O)Cc2nc(co2)C(=O)N2CCC=C2C(=O)O[C@H](C(C)C)[C@H](C)/C=C/C(=O)NC\C=C\1 [Virginiamycin M1]
fitness: 0.7
//
Compound: Cc1ncc([N+](=O)[O-])n1CCO [Metronidazole] + COc1cc(Cc2cnc(N)nc2N)cc(OC)c1OC [Trimethoprim]
fitness: 0.72
